# credit: paper PMC6219668

- Tested on: panel of nearly 500 cancer cell lines
- test-description: Cancer Cell Line Encyclopedia profiling, 3-day CellTiter-Glo
- Format: cell-based
- setup-conditions: Homo sapiens, IM95
pIC50: −log10 of the molar value.
readout-label: pIC50

INPUT: # query: pIC50 of entry CN(C)C(=O)c1cc2cnc(Nc3ccc(N4CCNCC4)cn3)nc2n1C1CCCC1 [Ribociclib]
OUTPUT: < 5.10

###

Assign pEC50 to each entry below.
- Test system: panel of nearly 500 cancer cell lines
- test-description: Cancer Cell Line Encyclopedia profiling, 3-day CellTiter-Glo
- Type: cell-based
- setup-conditions: Homo sapiens, HCT-116
pEC50: −log10 of the molar value.

{"columns": ["molecule", "target", "result"],
 "data": [
  ["CC(=O)c1c(C)c2cnc(Nc3ccc(N4CCNCC4)cn3)nc2n(C2CCCC2)c1=O [Palbociclib, reference compound]", "panel of nearly 500 cancer cell lines", "< 5.10"]
]}

We next turn to a different molecule, shown below.
INPUT: # query: pEC50 of entry CN(C)C(=O)c1cc2cnc(Nc3ccc(N4CCNCC4)cn3)nc2n1C1CCCC1
OUTPUT: < 5.10
